# STUDY TARGET: ZFP SBS#681 (synthetic)
# Sequence (chain, as listed by the source): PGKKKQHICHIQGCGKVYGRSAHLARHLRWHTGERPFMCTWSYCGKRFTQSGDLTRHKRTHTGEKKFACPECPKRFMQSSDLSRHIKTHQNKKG
# PROTOCOL DESCRIPTION: EMSA
# CONDITION PARAMETERS: tags: MBP fusion
QUANTITY KIND: Kd (nM)
Supply the numeric figure in nM, leaving out any unit text.

Can you look up the measured Kd of GCTGCAGGAG (dsDNA) DNA 1: GCTGCAGGAG DNA 2: CTCCTGCAGC for me?
3000
